assay: inhibitors of platelet dense granule secretion, primary screen, cell-based, MLPCN, human platelets (AID 1663); settings: human platelet-rich plasma, SFLLRN dense granule ATP release, luminescence; active compounds read high;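 compounds screened at 7.5 µM in platelet-rich plasma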
Out of some 300,000 compounds screened, about 660 (0.22%) were called active. The full list was thinned out, with actives kept by preference.
So basically: inhibition at 3% or higher? That is Yes. Lower than 3%? That is No.

COc1ccc(-c2cn3ccsc3n2)cc1 = Yes
CC(C)=CCN1CCN(Cc2cc3ccccc3[nH]2)CC1CCO (stereo unspecified) = Yes
Cc1nn(C)c(Cl)c1CN1CCC(Oc2ccc(C(=O)N3CCCC3)cc2)CC1 = No
CCN(CC)S(=O)(=O)c1ccc(-c2cn3ccc(C)cc3n2)cc1 = Yes

Can NNC(=O)CNC(c1ccccc1)c1cc(Cl)ccc1NC(=O)c1ccccc1 (stereo unspecified) be said to have inhibition at or above 3%?
No

Just for reference, PubChem BioAssay AID1663 is where these values come from.
